Please respond with reported Activity for every item in the list.
- TESTED_ON: Serine/threonine-protein kinase B-raf (Homo sapiens)
- ASSAY_NOTES: Inhibition of BRAF (unknown origin) assessed as remaining activity at 0.1 uM relative to control
Numbers only, in %.

Sample records with Activity:
STRUCTURE	OBSERVED
CNS(=O)(=O)Nc1cccc(Cn2cnc3c(F)c(Nc4ccc(C5CCCC5)cc4F)c(C(=O)NOCCO)cc32)c1F	13
CNS(=O)(=O)Nc1cccc(Cn2cnc3c(F)c(Nc4ccc(I)cc4F)c(C(=O)NOCCO)cc32)c1Cl	1
CCNS(=O)(=O)Nc1cc(F)cc(Cn2cnc3c(F)c(Nc4ccc(C5CC5)cc4F)c(C(=O)NOCCO)cc32)c1	5
CNS(=O)(=O)Nc1cccc(Cn2cnc3c(F)c(Nc4ccc(Br)cc4F)c(C(=O)NOCCO)cc32)c1Cl	3
CCNS(=O)(=O)Nc1cccc(Cn2cnc3c(F)c(Nc4ccc(I)cc4F)c(C(=O)NOCCO)cc32)c1Cl	0

Let's switch to this molecule now.
Form: molecule = CNS(=O)(=O)Nc1cc(F)cc(Cn2cnc3c(F)c(Nc4ccc(C5CC5)cc4F)c(C(=O)NOCCO)cc32)c1 ; Activity = 5

---

- Test system: HCT-116
- ASSAY_NOTES: Antiproliferative activity against human HCT-116 cells harboring KRAS G13D mutant at 1 uM incubated for 72 hrs by CCK8 assay relative to control
- Format: functional
For each record, write down the corresponding inhibition at 1 µM.
Answers are plain numbers, in %.

Example entries begin here.
MOLECULE	inhibition at 1 µM / %
CCNS(=O)(=O)Nc1cccc(Cn2cnc3c(F)c(Nc4ccc(C5CC5)cc4F)c(C(=O)NOCCO)cc32)c1	60.4
CNS(=O)(=O)Nc1cccc(Cn2cnc3c(F)c(Nc4ccc(C5CCCC5)cc4F)c(C(=O)NOCCO)cc32)c1F	24.8
CNS(=O)(=O)Nc1cccc(Cn2cnc3c(F)c(Nc4ccc(C)cc4F)c(C(=O)NOCCO)cc32)c1F	74.8
CCNS(=O)(=O)Nc1cccc(Cn2cnc3c(F)c(Nc4ccc(C5CC5)cc4F)c(C(=O)NOCCO)cc32)c1Cl	49.6
O=C(NOCCO)c1cc2c(ncn2Cc2cccc(NC(=O)C3CCCC3)c2)c(F)c1Nc1ccc(C2CC2)cc1F	4.21

Working through the 3 molecules below one at a time, give inhibition at 1 µM for each.
1. CCNS(=O)(=O)Nc1cc(F)cc(Cn2cnc3c(F)c(Nc4ccc(C5CC5)cc4F)c(C(=O)NOCCO)cc32)c1
2. Cn1cnc2c(F)c(Nc3ccc(Br)cc3F)c(C(=O)NOCCO)cc21 [BINIMETINIB]
3. O=C(NOCCO)c1cc2c(ncn2Cc2cccc(NC(=O)C3CC3)c2)c(F)c1Nc1ccc(C2CC2)cc1F

Result:
1: 56.7; 2: 41.4; 3: 19.3

---

- TESTED_ON: Dual specificity mitogen-activated protein kinase kinase 1 (Homo sapiens, UniProt Q02750)
- Sequence (Q02750 whole entry): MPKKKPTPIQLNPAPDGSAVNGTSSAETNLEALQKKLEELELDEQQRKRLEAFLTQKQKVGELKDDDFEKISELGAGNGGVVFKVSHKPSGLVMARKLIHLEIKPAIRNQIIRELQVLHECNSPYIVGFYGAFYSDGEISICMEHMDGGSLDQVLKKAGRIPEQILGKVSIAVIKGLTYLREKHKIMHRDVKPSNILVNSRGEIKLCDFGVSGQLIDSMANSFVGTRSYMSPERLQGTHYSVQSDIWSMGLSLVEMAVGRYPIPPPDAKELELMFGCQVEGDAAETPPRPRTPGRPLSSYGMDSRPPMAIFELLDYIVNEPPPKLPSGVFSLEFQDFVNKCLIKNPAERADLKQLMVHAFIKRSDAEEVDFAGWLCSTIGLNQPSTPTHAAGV
- ASSAY_NOTES: Inhibition of MEK1 (unknown origin)
MEASURED_METRIC: pIC50
Answers are plain numbers, as −log10 of the molar value.

STRUCTURE	TESTED_ON	MEASURED_METRIC	OBSERVED
CNS(=O)(=O)Nc1cccc(Cn2cnc3c(F)c(Nc4ccc(C5CC5)cc4F)c(C(=O)NOCCO)cc32)c1	Dual specificity mitogen-activated protein kinase kinase 1 (Homo sapiens, UniProt Q02750)	pIC50	6.92
CNS(=O)(=O)Nc1cccc(Cn2cnc3c(F)c(Nc4ccc(I)cc4F)c(C(=O)NOCCO)cc32)c1F	Dual specificity mitogen-activated protein kinase kinase 1 (Homo sapiens, UniProt Q02750)	pIC50	8.10
CNS(=O)(=O)Nc1cccc(Cn2cnc3c(F)c(Nc4ccc(C5CC5)cc4F)c(C(=O)NOCCO)cc32)c1F	Dual specificity mitogen-activated protein kinase kinase 1 (Homo sapiens, UniProt Q02750)	pIC50	7.38
CCNS(=O)(=O)Nc1cccc(Cn2cnc3c(F)c(Nc4ccc(C5CC5)cc4F)c(C(=O)NOCCO)cc32)c1F	Dual specificity mitogen-activated protein kinase kinase 1 (Homo sapiens, UniProt Q02750)	pIC50	7.55

Case CCNS(=O)(=O)Nc1cccc(Cn2cnc3c(F)c(Nc4ccc(C5CC5)cc4F)c(C(=O)NOCCO)cc32)c1 , Dual specificity mitogen-activated protein kinase kinase 1 (Homo sapiens, UniProt Q02750), pIC50 recorded as 7.13

---

Exercise: for every item that follows, state its recorded Activity.
- TESTED_ON: Serine/threonine-protein kinase B-raf (Homo sapiens)
- ASSAY_NOTES: Inhibition of BRAF (unknown origin) assessed as remaining activity at 0.1 uM relative to control
One number for each entry, in %.

Solved cases below.
STRUCTURE	UNIT_ANNOTATION	Activity
CNS(=O)(=O)Nc1cccc(Cn2cnc3c(F)c(Nc4ccc(C5CC5)cc4F)c(C(=O)NOCCO)cc32)c1Cl	%	3
CCNS(=O)(=O)Nc1cccc(Cn2cnc3c(F)c(Nc4ccc(C5CC5)cc4F)c(C(=O)NOCCO)cc32)c1Cl	%	3
CNS(=O)(=O)Nc1cccc(Cn2cnc3c(F)c(Nc4ccc(C5CC5)cc4F)c(C(=O)NOCCO)cc32)c1	%	5
CNS(=O)(=O)Nc1cccc(Cn2cnc3c(F)c(Nc4ccc(C5CC5)cc4F)c(C(=O)NOCCO)cc32)c1F	%	-4
CNS(=O)(=O)Nc1cccc(Cn2cnc3c(F)c(Nc4ccc(Br)cc4F)c(C(=O)NOCCO)cc32)c1F	%	3

Please report Activity for every entry that follows.
1. CC(C)CNS(=O)(=O)Nc1cccc(Cn2cnc3c(F)c(Nc4ccc(C5CC5)cc4F)c(C(=O)NOCCO)cc32)c1
2. CC(=O)Nc1cccc(Cn2cnc3c(F)c(Nc4ccc(C5CC5)cc4F)c(C(=O)NOCCO)cc32)c1
3. CNS(=O)(=O)Nc1cccc(Cn2cnc3c(F)c(Nc4ccc(I)cc4F)c(C(=O)NOCCO)cc32)c1F
4. CCNS(=O)(=O)Nc1cccc(Cn2cnc3c(F)c(Nc4ccc(I)cc4F)c(C(=O)NOCCO)cc32)c1F
5. CNS(=O)(=O)Nc1cccc(Cn2cnc3c(F)c(Nc4ccc(C5CCC5)cc4F)c(C(=O)NOCCO)cc32)c1F
6. CCNS(=O)(=O)Nc1cccc(Cn2cnc3c(F)c(Nc4ccc(C)cc4F)c(C(=O)NOCCO)cc32)c1F
7. CCNS(=O)(=O)Nc1cccc(Cn2cnc3c(F)c(Nc4ccc(C5CCC5)cc4F)c(C(=O)NOCCO)cc32)c1F

Result:
5
22
-2
1
5
4
4

Could you tell me Activity for each of these molecules? They are listed below.
1. O=C(NOCCO)c1cc2c(ncn2Cc2cccc(NC(=O)C3CCCC3)c2)c(F)c1Nc1ccc(C2CC2)cc1F
2. CC(C)NS(=O)(=O)Nc1cccc(Cn2cnc3c(F)c(Nc4ccc(C5CC5)cc4F)c(C(=O)NOCCO)cc32)c1
3. CS(=O)(=O)Nc1cccc(Cn2cnc3c(F)c(Nc4ccc(C5CC5)cc4F)c(C(=O)NOCCO)cc32)c1
4. CCNS(=O)(=O)Nc1cccc(Cn2cnc3c(F)c(Nc4ccc(C5CC5)cc4F)c(C(=O)NOCCO)cc32)c1

Result:
1: 71; 2: 4; 3: 6; 4: 0

---

- TESTED_ON: Serine/threonine-protein kinase B-raf (Homo sapiens, UniProt P15056)
- Sequence (P15056 whole entry): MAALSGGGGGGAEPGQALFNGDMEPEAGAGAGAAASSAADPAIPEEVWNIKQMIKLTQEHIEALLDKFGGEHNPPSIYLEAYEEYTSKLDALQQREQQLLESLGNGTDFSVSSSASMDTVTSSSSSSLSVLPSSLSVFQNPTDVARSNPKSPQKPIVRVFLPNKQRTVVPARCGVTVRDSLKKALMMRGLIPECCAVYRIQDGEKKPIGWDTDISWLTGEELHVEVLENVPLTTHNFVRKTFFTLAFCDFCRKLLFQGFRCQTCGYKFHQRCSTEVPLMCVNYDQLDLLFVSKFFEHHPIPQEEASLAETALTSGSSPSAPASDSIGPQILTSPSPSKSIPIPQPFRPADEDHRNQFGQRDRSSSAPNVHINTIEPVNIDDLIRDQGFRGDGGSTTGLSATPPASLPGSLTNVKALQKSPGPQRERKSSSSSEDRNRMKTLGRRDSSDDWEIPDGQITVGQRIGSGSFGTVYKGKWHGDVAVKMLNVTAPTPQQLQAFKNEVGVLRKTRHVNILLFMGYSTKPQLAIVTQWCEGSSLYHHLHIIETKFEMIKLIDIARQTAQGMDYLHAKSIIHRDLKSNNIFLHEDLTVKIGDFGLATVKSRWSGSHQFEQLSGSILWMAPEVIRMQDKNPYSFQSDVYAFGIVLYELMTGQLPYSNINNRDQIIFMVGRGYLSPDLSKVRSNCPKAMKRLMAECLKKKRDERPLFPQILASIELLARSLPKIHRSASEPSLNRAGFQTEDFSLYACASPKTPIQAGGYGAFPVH
- ASSAY_NOTES: Inhibition of BRAF (unknown origin) assessed as remaining activity at 0.1 uM relative to control
Field: Activity. Provide a value for each of the molecules that follow.
One number for each entry, in %.

// for each molecule below, give its Activity
1. CNS(=O)(=O)Nc1ccc(F)c(Cn2cnc3c(F)c(Nc4ccc(C5CC5)cc4F)c(C(=O)NOCCO)cc32)c1
2. O=C(NOCCO)c1cc2c(ncn2Cc2cccc(NC(=O)C3CCCCC3)c2)c(F)c1Nc1ccc(C2CC2)cc1F

Result:
1. 21
2. 35

---

- Tested on: HCT-116
- ASSAY_NOTES: Antiproliferative activity against human HCT-116 cells harboring KRAS G13D mutant at 1 uM incubated for 72 hrs by CCK8 assay relative to control
- Type: functional
inhibition at 1 µM below 60% gives NO; inhibition at 1 µM at or above it gives YES.

STRUCTURE	ANSWER_LABEL
CCNS(=O)(=O)Nc1cccc(Cn2cnc3c(F)c(F)c(C(=O)NOCCO)cc32)c1F	NO
CNS(=O)(=O)Nc1cccc(Cn2cnc3c(F)c(Nc4ccc(C5CC5)cc4F)c(C(=O)NOCCO)cc32)c1	NO
CNS(=O)(=O)Nc1cccc(Cn2cnc3c(F)c(Nc4ccc(I)cc4F)c(C(=O)NOCCO)cc32)c1F	YES
CNS(=O)(=O)Nc1cccc(Cn2cnc3c(F)c(Nc4ccc(C5CC5)cc4F)c(C(N)=O)cc32)c1	NO
CCNS(=O)(=O)Nc1cccc(Cn2cnc3c(F)c(Nc4ccc(Br)cc4F)c(C(=O)NOCCO)cc32)c1Cl	NO

Lab note: next compound to report on.
Problem: Quick check, inhibition at 1 µM >= 60%? CNS(=O)(=O)Nc1cccc(Cn2cnc3c(F)c(Nc4ccc(C5CCC5)cc4F)c(C(=O)NOCCO)cc32)c1F
Result: NO
